experiment: Toxicity liver stage against HepG2, at 10uM; type: cell-based; design: test concentration 10 uM, cell line HepG2-A16-CD81EGFP; settings: human, HepG2-A16-CD81EGFP cells; read-out: INHIBITION
Value Type: cytotoxicity at 10 µM (%)
Respond with the bare value in %.

// worked examples, cytotoxicity at 10 µM included
[
  {
    "Compound": "O=C(c1cscn1)N1CCc2ncnc(-c3cccnc3)c2CC1",
    "Value Type": "cytotoxicity at 10 µM",
    "U": "%",
    "Measured Result": -1.6
  },
  {
    "Compound": "O=c1[nH]nc2c(S(=O)(=O)N3CCCCCC3)cccn12",
    "Value Type": "cytotoxicity at 10 µM",
    "U": "%",
    "Measured Result": 2.1
  },
  {
    "Compound": "Cc1[nH]nc(CCC(=O)NCC2COc3ccccc3C2)c1C (stereo not given)",
    "Value Type": "cytotoxicity at 10 µM",
    "U": "%",
    "Measured Result": -43.4
  },
  {
    "Compound": "O=C1[C@H]2CN(Cc3ccco3)C[C@H]2CN1c1ccsc1",
    "Value Type": "cytotoxicity at 10 µM",
    "U": "%",
    "Measured Result": -71.9
  },
  {
    "Compound": "CC(C)c1nn(C)c(Cl)c1CNC1CCOc2ccccc21 (stereo not given)",
    "Value Type": "cytotoxicity at 10 µM",
    "U": "%",
    "Measured Result": 53.2
  }
]

# input compound: CC(=O)N(C)c1nc(CN2CCCC2Cn2cncn2)cs1 (stereo not given) ; wanted: its cytotoxicity at 10 µM
-1.01

Can you check CC(C)N(C)Cc1nnc2n1CCN(Cc1ccncc1)CC2 next?
-2.42

Can you check CCS(=O)(=O)N1CCC2(CN(C(=O)c3cscn3)C2)C1 next?
10.8

Can you check COCCn1ccc(NC(=O)Nc2ccccn2)n1 next?
3.18

Can you check CC(=O)NCC(=O)N1Cc2nc(COCc3csc(C)n3)oc2C1 next?
0.503

Can you check Cc1ccc(CN2CCN(CC(=O)Nc3ccc4nsnc4c3)CC2)o1 next?
-17.5

Can you check CCOCCNS(=O)(=O)c1ccc2c3c1CCCN3C(=O)CO2 next?
7.9

Can you check Cc1cncc(C(=O)N2CCOc3nc(C)ccc32)c1 next?
5.19

###

assay: Toxicity liver stage against HepG2, at 10uM; assay type: cell-based; parameters: test concentration 10 uM, cell line HepG2-A16-CD81EGFP; settings: human, HepG2-A16-CD81EGFP cells; read-out: INHIBITION
Reported cytotoxicity at 10 µM values for a set of compounds
Respond with the bare value in %.

// worked examples, cytotoxicity at 10 µM included
[
  {
    "Compound": "CC(C)(C)OC(=O)N1CCN(c2cccnc2)CC1C(=O)O (configuration not stated)",
    "Measured Result": -13.7
  },
  {
    "Compound": "CC1(C)Cc2ccccc2-c2nc(NCCO)[nH]c(=O)c21",
    "Measured Result": -5.46
  },
  {
    "Compound": "O=C(N1CCCCC1)N1CCN(CC(O)c2ccc(F)cc2)CC1 (configuration not stated)",
    "Measured Result": -8.85
  },
  {
    "Compound": "Cn1cnc2nc3n(c2c1=O)CCC3",
    "Measured Result": -0.409
  },
  {
    "Compound": "COc1ccccc1OCc1cc(C(=O)N2C[C@@H](C)O[C@@H](C)C2)n[nH]1",
    "Measured Result": -4.91
  },
  {
    "Compound": "c1ccc2c(c1)CC(n1ccnc1-c1cc3n(n1)CCCNC3)CO2 (configuration not stated)",
    "Measured Result": -8.26
  },
  {
    "Compound": "COc1ccc(NC(=O)c2nc(C)sc2C)cn1",
    "Measured Result": -2.52
  },
  {
    "Compound": "CC(=O)N1CCC(C)(c2cc[nH]n2)CC1",
    "Measured Result": -4.07
  }
]

# input compound: Cc1ccc2[nH]c(C3CCN(CC(N)=O)CC3)nc2c1 ; wanted: its cytotoxicity at 10 µM
3.23

Can you check CNC(=O)NC(=O)C(C)N1CCN(c2ccc(C#N)cc2F)CC1 (configuration not stated) next?
2.83

Can you check CC(C)(C)OC(=O)N[C@H]1CCN(c2cncc(Br)c2)C1 next?
-52.8

Can you check CCc1nnc(CN2CC(n3cccn3)C2)o1 next?
-146
